# Tested on: SK-HEP1
# protocolText: Antiproliferative activity against human SK-HEP1 cells assessed as inhibition of cell growth measured after 72 hrs by MTT assay
# Type: functional, cell-based
# measurementSetup: SK-HEP1, 72 h
pIC50: −log10 of the molar value.
endpointLabel: pIC50

Query block: Output reported pIC50 of the compound N#Cc1cccc(/C=C/c2nccc3ccccc23)c1 on SK-HEP1.
Result block: < 4.40

Query block: Output reported pIC50 of the compound COc1ccc(/C=C/c2nccc3ccccc23)cc1 on SK-HEP1.
Result block: < 4.40

Query block: Output reported pIC50 of the compound CNC(=O)c1cc(Oc2ccc(NC(=O)Nc3ccc(Cl)c(C(F)(F)F)c3)cc2)ccn1 [SORAFENIB] on SK-HEP1.
Result block: 5.06

Query block: Output reported pIC50 of the compound C#Cc1ccc(/C=C/c2nccc3ccccc23)cc1 on SK-HEP1.
Result block: < 4.40

Query block: Output reported pIC50 of the compound Oc1ccc(/C=C/c2cc(O)cc(O)c2)cc1 [RESVERATROL] on SK-HEP1.
Result block: < 4.40

Query block: Output reported pIC50 of the compound N#Cc1ccccc1/C=C/c1nccc2ccccc12 on SK-HEP1.
Result block: 4.93

Query block: Output reported pIC50 of the compound CC(=O)Oc1cccc(/C=C/c2nccc3ccccc23)c1 on SK-HEP1.
Result block: 4.85

Query block: Output reported pIC50 of the compound N#Cc1ccc(/C=C/c2nccc3ccccc23)cc1 on SK-HEP1.
Result block: < 4.40
